// values below are reported Kd
Target: T1, NPNA8 peptide (Plasmodium falciparum (isolate 3D7)., not fully specified)
T1 construct: source: synthetic peptide (InnoPep Inc)
T1 chain: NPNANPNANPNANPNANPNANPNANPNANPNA
Assay: BLI
Settings: both partners purified
The figure you give is taken to be in nM; do not add the unit.

Below, each entry is followed by its recorded Kd result.
311R Fab (Fab, V domains shown, also called germline-reverted 311; source: ExpiCHO cells, purified (mAb Select PrismA or Capture Select, SEC)) VH: QVQLVESGGGVVPPGRSLRLSCATSGFTFSSYGMHWVRQAPGKGLEWVAIIWYDGSNKFYAASVKGRFTISRDNSKNTLYLQMNSLRVEDTAVYYCARAAYYDTSGYGDYWGQGTLVTVSS VL: QSVLTQPPSVSGAPGQTVTISCTGGSSNIGAGYDVHWYQQLPGTAPKLLIYGNINRPSGVPDRFSGSKSGTSASLAITGLQAEDEADYYCQSYDSSLSGSWVFGGGTKLTVL = 211
239R Fab (Fab, V domains shown, also called germline-reverted 239; source: ExpiCHO cells, purified (mAb Select PrismA or Capture Select, SEC)) VH: QVQLVESGGGVVQPGRSLRLSCAASRLTFSSYGMHWVRQTPGKGLEWVAVIWHDGSNKFYADSVKGRFTISRDNSKNTLYLQMNSLRDEDTAIYYCAKDWGGASDRVFDYWGRGTLVIVSS VL: DIQMTQSPSTLSASVGDRVTITCRASQSVSTSLAWYQQKPGKAPNLLIYQASTLYTGVPSRFSGSGSGTEFTLTIGSLQPDDFATYYCQHYNSYSRITFGQGTRLEIK = 205

Note: attention shifts to another entry.
Exercise: Kd for 311 Fab (Fab, V domains shown, also called mAb 311; source: ExpiCHO cells, purified (mAb Select PrismA or Capture Select, SEC)) VH: QVQLVESGGGVVPPGRSLRLSCATSGFTFSNYGMHWVRQAPGKGLEWVAIIWYDGSRNFYAASVEGRFTISRDNSKNTLYLQMNSLRVEDTAVYYCARAAYYDTSGYGDYWGQGTLVTVSS VL: QSVLTQPPSVSGAPGQTVTISCTGGSSNIGAGYDVHWYQQLPGTAPKLLIYGNINRPSGVPDRFSGSKSGTSASLAITGLQAEDEADYYCQSYDRRLSGSWVFGGGTKLTVL ?
Solution: 6.1
